Entry source: patent US9688669B2

- System Under Test: human mGluR5A (Homo sapiens (Human), UniProt P41594)
- Sequence (P41594 other isoform, or with tags, fused parts or gaps): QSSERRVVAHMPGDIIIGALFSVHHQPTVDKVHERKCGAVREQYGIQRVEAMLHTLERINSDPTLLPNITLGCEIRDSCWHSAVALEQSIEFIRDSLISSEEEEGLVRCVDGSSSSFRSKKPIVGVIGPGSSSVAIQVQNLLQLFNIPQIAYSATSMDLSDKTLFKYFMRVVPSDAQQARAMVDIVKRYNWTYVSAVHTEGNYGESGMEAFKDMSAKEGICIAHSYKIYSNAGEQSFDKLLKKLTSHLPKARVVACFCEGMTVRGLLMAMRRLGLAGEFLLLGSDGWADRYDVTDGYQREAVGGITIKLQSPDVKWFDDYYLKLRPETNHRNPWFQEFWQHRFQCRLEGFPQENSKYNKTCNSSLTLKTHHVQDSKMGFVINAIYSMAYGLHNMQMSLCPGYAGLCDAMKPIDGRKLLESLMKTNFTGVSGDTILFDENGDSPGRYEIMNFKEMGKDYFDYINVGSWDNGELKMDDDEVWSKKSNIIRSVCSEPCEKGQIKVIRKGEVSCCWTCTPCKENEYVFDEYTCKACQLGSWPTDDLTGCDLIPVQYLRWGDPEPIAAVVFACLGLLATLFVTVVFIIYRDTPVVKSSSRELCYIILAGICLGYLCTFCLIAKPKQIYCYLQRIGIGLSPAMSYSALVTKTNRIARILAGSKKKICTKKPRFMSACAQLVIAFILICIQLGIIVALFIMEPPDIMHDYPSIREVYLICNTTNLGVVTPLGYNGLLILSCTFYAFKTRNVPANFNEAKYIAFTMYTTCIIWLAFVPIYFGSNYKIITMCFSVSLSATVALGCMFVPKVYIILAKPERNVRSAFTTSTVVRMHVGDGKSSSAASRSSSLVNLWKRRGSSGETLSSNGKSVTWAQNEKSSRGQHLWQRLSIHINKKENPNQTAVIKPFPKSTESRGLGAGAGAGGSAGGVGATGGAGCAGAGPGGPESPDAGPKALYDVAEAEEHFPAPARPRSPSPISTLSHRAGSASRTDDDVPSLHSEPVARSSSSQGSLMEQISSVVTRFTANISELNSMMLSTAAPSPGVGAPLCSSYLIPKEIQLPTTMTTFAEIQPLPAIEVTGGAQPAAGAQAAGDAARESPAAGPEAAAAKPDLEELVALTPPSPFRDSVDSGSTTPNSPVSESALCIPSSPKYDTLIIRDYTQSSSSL
- Protocol: mGluR5 FLIPR Assay
- Measurement Conditions: positive modulator activity, HEK293 (ZF) cells with human mGluR5A and rat GLAST, Ca++ response to ~EC10 l-glutamate
pEC50: −log10 of the molar value.
compounds and their reported pEC50

Given the compound O=C1N[C@H](c2cncc(C#CCC3(O)CCC3)c2)[C@@H](c2cccc(F)c2)O1 and test system human mGluR5A (Homo sapiens (Human), UniProt P41594), the measured pEC50 is < 5.79

Given the compound O=C1N[C@H](c2cccc(C#CC3CC(F)(F)C3)n2)[C@@H](c2ccccc2)O1 and test system human mGluR5A (Homo sapiens (Human), UniProt P41594), the measured pEC50 is < 5.49

Given the compound COc1cccc([C@H]2OC(=O)N[C@@H]2c2cccc(C#CC3CC(F)(F)C3)c2)c1 and test system human mGluR5A (Homo sapiens (Human), UniProt P41594), the measured pEC50 is < 5.79
